- methodNotes: Plasma concentration in rat at 3 mg/kg, iv measured upto 3 hrs
- Format: ADME, organism-based
readout: concentration at 3 h (ng/mL)
All answers are understood in ng/mL, so give the number only.

Q: Requested read-out: concentration at 3 h. Entry: `CC1(C)NC(=O)N(C[C@@H](COc2ccc(-c3ccc(OC(F)(F)F)cc3)cc2)N(O)C=O)C1=O`
Result: 1500

* * *

- methodNotes: Metabolic stability in dog assessed as clearance at 3 mg/kg, iv
- Format: ADME, organism-based, Canis lupus familiaris
- testConditions: in vivo
readout: clearance (mL/min/kg)
Field: numeric (mL/min/kg). Do not append units.

Q: Give its clearance value. Item: `CC1(C)NC(=O)N(C[C@@H](COc2ccc(-c3ccc(OC(F)(F)F)cc3)cc2)N(O)C=O)C1=O`
Result: 1.83
